FYI, the data here is from patent US10774087B2.

Tested target: recombinant MTHFD2 protein (Homo sapiens)
Construct: containing recombinant MTHFD2 protein
Sequence (P13995 36-350): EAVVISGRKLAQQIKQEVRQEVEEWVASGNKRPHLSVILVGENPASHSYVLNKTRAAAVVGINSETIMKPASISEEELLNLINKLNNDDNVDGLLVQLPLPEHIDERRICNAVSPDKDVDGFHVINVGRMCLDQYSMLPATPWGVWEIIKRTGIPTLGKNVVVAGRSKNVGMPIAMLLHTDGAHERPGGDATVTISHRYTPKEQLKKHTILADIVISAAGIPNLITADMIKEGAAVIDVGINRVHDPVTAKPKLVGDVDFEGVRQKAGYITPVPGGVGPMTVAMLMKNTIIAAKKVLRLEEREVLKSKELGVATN
Assay: MTHFD2 dehydrogenase assay
Type: biochemical
Form field: pIC50 (one value per entry).
# pIC50: negative log10 of molar concentration; output just the value

Cc1c(N2CCN(C)C(C)(C)C2)ccc2c3c(c(=O)oc12)CN(C(=O)c1ccc(NS(C)(=O)=O)c(OC(F)(F)F)c1)CC3 :: 7.12
Cc1c(N2CCN(C)[C@@H](C)C2)cc(C)c2c3c(c(=O)oc12)CN(C(=O)c1ccc(NS(C)(=O)=O)c(Cl)c1)CC3 :: 8.36

For the next question, use this molecule.
Exam item: Look up pIC50 for this molecule: `CCS(=O)(=O)Nc1ccc(C(=O)N2CCc3c(c(=O)oc4c(C)c(N5CCN(C)[C@@H](C)C5)ccc34)C2)cc1OC(F)(F)F`
Marked response: 8.33

---

Listing of entries alongside the reported pIC50.
Tested target: recombinant MTHFD2 protein (Homo sapiens, UniProt P13995)
Construct: containing recombinant MTHFD2 protein
Sequence (P13995 36-350): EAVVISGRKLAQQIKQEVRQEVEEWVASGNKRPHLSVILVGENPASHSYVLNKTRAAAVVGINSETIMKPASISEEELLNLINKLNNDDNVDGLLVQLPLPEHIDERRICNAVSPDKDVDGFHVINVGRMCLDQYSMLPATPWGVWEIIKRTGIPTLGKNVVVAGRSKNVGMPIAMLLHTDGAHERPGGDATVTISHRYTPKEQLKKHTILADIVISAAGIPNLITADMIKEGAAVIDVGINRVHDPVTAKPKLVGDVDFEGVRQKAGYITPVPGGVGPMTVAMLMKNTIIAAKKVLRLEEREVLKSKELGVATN
Assay: MTHFD2 dehydrogenase assay
Type: biochemical
Stated conditions: 200 μM NAD, room temperature 30 minutes, absorbance 355 nm
Where a name gives a salt, the structure may show the parent alone.
Please express pIC50 as -log10 of the molar concentration.

Cc1c(N2CCN(C)[C@@H](C)C2)ccc2c3c(c(=O)oc12)CN(C(=O)c1ccc(NS(C)(=O)=O)c(Cl)c1)CC3 :: 8.03
Cc1c(N2CCN(C)CC2)ccc2c3c(c(=O)oc12)CN(C(=O)c1ccc(NS(C)(=O)=O)c(Cl)c1)CC3 :: 7.32
Cc1c(N2CCN(C)CC2)ccc2c3c(c(=O)oc12)CN(C(=O)c1ccc(NS(C)(=O)=O)c(OC(F)(F)F)c1)CC3 :: 7.68
Cc1c(N2C[C@@H](C)N(C)[C@@H](C)C2)ccc2c3c(c(=O)oc12)CN(C(=O)c1ccc(NS(C)(=O)=O)c(Cl)c1)CC3 :: 7.43
Cc1c(N2CCN(C)CC2)ccc2c3c(c(=O)oc12)CN(C(=O)c1ccc(NS(=O)(=O)C2CC2)c(Cl)c1)CC3 :: 7.55

Exam item: Looking for the measured pIC50 of Cc1c(N2CCN[C@@H](C)C2)ccc2c3c(c(=O)oc12)CN(C(=O)c1ccc(NS(C)(=O)=O)c(OC(F)(F)F)c1)CC3 [Example 13, hydrochloride] , can you help?
Marked response: 8.11

Exam item: Record: `CCS(=O)(=O)Nc1ccc(C(=O)N2CCc3c(c(=O)oc4c(C)c(N5CCN(C)[C@@H](C)C5)cc(C)c34)C2)cc1OC(F)(F)F`
Marked response: 8.57

---

Tested target: recombinant MTHFD1 protein (dehydrogenase domain, alone) (Homo sapiens)
Construct: recombinant MTHFD1 protein (dehydrogenase domain, alone)
Sequence (P11586 2-291 limits assumed): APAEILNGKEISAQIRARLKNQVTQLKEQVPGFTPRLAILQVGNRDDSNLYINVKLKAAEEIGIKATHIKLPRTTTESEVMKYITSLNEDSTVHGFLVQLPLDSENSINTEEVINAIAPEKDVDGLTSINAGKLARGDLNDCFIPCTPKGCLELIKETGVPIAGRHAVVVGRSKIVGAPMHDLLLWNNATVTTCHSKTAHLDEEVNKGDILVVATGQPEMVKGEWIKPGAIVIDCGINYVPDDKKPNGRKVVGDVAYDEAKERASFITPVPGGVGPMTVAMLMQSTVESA
Assay: MTHFD1 dehydrogenase assay
Format: biochemical
The entries below come with measured IC50 values attached.
Could you give me the number in µM? Just the number is fine.

Previously resolved entries follow.
Cc1c(N2CCN(C)[C@@H](C)C2)cc(C)c2c3c(c(=O)oc12)CN(C(=O)c1ccc(NS(C)(=O)=O)c(Cl)c1)CC3 :: 0.56
CC[C@H]1CN(c2ccc3c4c(c(=O)oc3c2C)CN(C(=O)c2ccc(NS(C)(=O)=O)c(OC(F)(F)F)c2)CC4)CCN1C :: 0.36
Cc1c(N2CCN(C)C(C)(C)C2)ccc2c3c(c(=O)oc12)CN(C(=O)c1ccc(NS(C)(=O)=O)c(OC(F)(F)F)c1)CC3 :: 0.71

Exam item: For the molecule shown here, `Cc1c(N2CCN(C)[C@@H](C)C2)ccc2c3c(c(=O)oc12)CN(C(=O)c1ccc(NS(C)(=O)=O)c(C(F)(F)F)c1)CC3` , give the reported IC50.
Marked response: 1.5

Exam item: What do you have for `Cc1c(N2CCN(C)[C@@H](C)C2)cc(C)c2c3c(c(=O)oc12)CN(C(=O)c1ccc(NS(C)(=O)=O)c(OC(F)(F)F)c1)CC3` ?
Marked response: 0.2

Exam item: Item: `CCS(=O)(=O)Nc1ccc(C(=O)N2CCc3c(c(=O)oc4c(C)c(N5CCN(C)[C@@H](C)C5)ccc34)C2)cc1OC(F)(F)F`
Marked response: 0.4

---

Tested target: recombinant MTHFD2 protein (Homo sapiens, UniProt P13995)
Construct: containing recombinant MTHFD2 protein
Sequence (P13995 36-350): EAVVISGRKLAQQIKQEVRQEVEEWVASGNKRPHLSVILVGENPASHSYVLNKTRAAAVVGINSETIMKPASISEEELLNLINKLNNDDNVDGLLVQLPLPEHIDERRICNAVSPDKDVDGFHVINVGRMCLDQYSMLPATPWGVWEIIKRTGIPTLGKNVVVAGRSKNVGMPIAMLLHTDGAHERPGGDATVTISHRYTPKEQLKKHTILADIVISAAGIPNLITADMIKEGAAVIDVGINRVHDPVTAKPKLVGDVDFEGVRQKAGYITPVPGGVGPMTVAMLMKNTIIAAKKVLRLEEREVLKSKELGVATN
Assay: MTHFD2 dehydrogenase assay
Assay type: biochemical
Experimental readout: pIC50
In plain terms, pIC50 is the concentration in mol/L turned into minus its base-10 logarithm.

Reference set, count: 2
Cc1c(N2CCN(C)[C@@H](C)C2)cc(C)c2c3c(c(=O)oc12)CN(C(=O)c1ccc(NS(C)(=O)=O)c(OC(F)(F)F)c1)CC3 [Example 8] :: 8.59
Cc1c(N2CCN(C)[C@@H](C)C2)ccc2c3c(c(=O)oc12)CN(C(=O)c1ccc(NS(C)(=O)=O)c(C(F)(F)F)c1)CC3 [Example 6] :: 8.19

Exam item: Could you share what pIC50 was measured for CC[C@H]1CN(c2ccc3c4c(c(=O)oc3c2C)CN(C(=O)c2ccc(NS(C)(=O)=O)c(OC(F)(F)F)c2)CC4)CCN1C [Example 11] , tested on recombinant MTHFD2 protein (Homo sapiens, UniProt P13995)?
Marked response: 8.29
